Every entry's value here was drawn from paper PMC7696938.

systemTested: Leishmania amazonensis recombinant arginase (L-ARG) (Leishmania amazonensis, UniProt O96394)
testMethodNotes: Determination of Ki, Kis and mechanism of inhibition of L-ARG (Dixon and Cornish-Bowden plots)
assaySetup: L-arginine 25, 50, 100 mM, pH 9.5
Protocol: All reactions were performed in 50 mM CHES buffer, pH 9.5, containing variable concentrations of the substrate L-arginine (25, 50, and 100 mM) at pH 9.5. Inhibitors were tested at three different concentrations close to the IC50. […] Urea was quantified according to the Berthelot method using commercial reagents as previously described. The constant Ki was determined for competitive and mixed inhibitors, and Ki’ was determined uncompetitive and mixed using a Dixon and Cornish–Bowden plots. […]
endpointName: Ki (µM)

Answered examples (3):
COC(=O)C(CS)NC(=O)/C=C/c1ccc(O)c(O)c1 (stereo not drawn)    6.6
O=C(/C=C/c1ccc(O)c(O)c1)NCCc1ccc(O)cc1    4.4
O=C(NCCc1ccc(O)cc1)c1ccc(O)c(O)c1    11.4

1: COc1cc(/C=C/C(=O)NCCc2ccc(O)c(O)c2)cc(OC)c1OC
2: COC(=O)C(Cc1ccc(O)c(O)c1)NC(=O)/C=C/c1ccc(O)c(O)c1 (stereo not drawn)
3: COc1cc(/C=C/C(=O)NCCc2ccc(O)c(O)c2)ccc1O
Ask: Ordering criterion: Ki; begin with the maximum. Give me the labels in the order the question wants.
Result: 3, 2, 1
(3: 9.6 µM, 2: 3.9 µM, 1: 1.2 µM)
